molecular target: Recombinant human factor B (Homo sapiens (Human)); assay: Human Complement Factor B TR-FRET Assay; type: binding; settings: displacement of labeled factor B ligand; * = assay behavior at and above the stated concentration prevented IC50 determination; read-out: hFactor-B TR-FRET Qualified IC50
Sequence (P00751 26-764): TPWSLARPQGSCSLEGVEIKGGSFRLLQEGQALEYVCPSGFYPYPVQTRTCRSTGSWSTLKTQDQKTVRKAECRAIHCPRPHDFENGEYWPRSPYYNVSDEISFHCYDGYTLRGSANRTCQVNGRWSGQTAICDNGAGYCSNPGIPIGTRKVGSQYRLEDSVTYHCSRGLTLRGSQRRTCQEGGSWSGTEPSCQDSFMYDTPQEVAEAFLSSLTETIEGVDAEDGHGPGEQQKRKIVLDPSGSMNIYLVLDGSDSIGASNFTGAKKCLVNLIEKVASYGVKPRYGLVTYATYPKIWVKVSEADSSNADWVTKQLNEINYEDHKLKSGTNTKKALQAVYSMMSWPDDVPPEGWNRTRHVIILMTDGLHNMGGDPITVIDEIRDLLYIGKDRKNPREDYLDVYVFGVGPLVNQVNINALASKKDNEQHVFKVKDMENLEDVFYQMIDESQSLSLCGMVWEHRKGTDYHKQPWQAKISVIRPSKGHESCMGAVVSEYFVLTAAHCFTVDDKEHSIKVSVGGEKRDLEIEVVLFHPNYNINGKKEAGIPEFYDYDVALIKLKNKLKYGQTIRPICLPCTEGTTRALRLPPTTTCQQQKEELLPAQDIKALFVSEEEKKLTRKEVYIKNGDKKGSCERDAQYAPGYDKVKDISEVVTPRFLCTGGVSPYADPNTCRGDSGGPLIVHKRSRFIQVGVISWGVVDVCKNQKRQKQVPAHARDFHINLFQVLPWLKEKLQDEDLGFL
measured attribute: IC50 (nM)
Your answer is read as nM, so omit the unit and give the number.

COc1cc(C)c2[nH]ccc2c1CN1CCC2(C[C@@H]1c1ccc(C(=O)O)cc1)CC(C)(O)C2 (single isomer, unassigned) = 10000

Kindly consider the entry below.
Any idea what IC50 came out for COc1cc(C)c2[nH]ccc2c1CN1CCC2(CC1c1ccc(C(=O)O)cc1)CC(C)(O)C2 (racemic) [Ex-16] on Recombinant human factor B (Homo sapiens (Human))?
434
